The following compounds are listed with their measured log10(half-life at 3 μM) values.
Method description: in vitro
Type: in vitro ADME
Condition details: hepatocytes; rat; 3 μM compound; read-out: Liver Hepatocyte Stability t1/2
Endpoint: log10(half-life at 3 μM) (log10 of the value in h)

> print(dat)
                                    compound  observed.result
 1  O=C(N[C@H]1N=C(c2ccccc2)c2cccc(F)c2NC1=O)c1c(-c2ccccc2F)nn2cccnc12 [Example 3]             0.13
 2  Cc1nc2ccc(Cl)nn2c1C(=O)N[C@H]1N=C(c2ccccc2)c2ccccc2NC1=O [Example 21]             0.18
 3  CCc1ccc(-c2nn3cccnc3c2C(=O)N[C@H]2N=C(c3ccccc3)c3cccc(F)c3NC2=O)c(C)n1 [Example 57]            -0.11
 4  Cc1ccc2nc(-c3ccccc3)c(C(=O)N[C@H]3N=C(c4ccccc4)c4cccc(F)c4NC3=O)n2n1 [Example 93]             0.08
 5  O=C(N[C@H]1N=C(c2ccccc2)c2cccc(F)c2NC1=O)c1c(-c2ccccc2F)nc2cccnn12 [Example 18]             0.05
 6  Cc1nc2ccc(Cl)nn2c1C(=O)N[C@H]1N=C(c2ccccc2)c2cccc(F)c2NC1=O [Example 20]             0.47
 7  COc1ccc2nc(-c3ccncc3F)c(C(=O)N[C@H]3N=C(c4ccccc4)c4cccc(F)c4NC3=O)n2n1 [Example 119]             0.29
 8  CCc1ccc(-c2nn3cccnc3c2C(=O)N[C@H]2N=C(c3ccccc3)c3cccc(F)c3NC2=O)cn1 [Example 55]             0.16
 9  O=C(N[C@H]1N=C(c2ccccc2)c2ccccc2NC1=O)c1c(-c2ccccc2F)nn2cccnc12 [Example 2]             0.60
10  Cc1ccc(-c2nn3cccnc3c2C(=O)N[C@H]2N=C(c3ccccc3)c3cccc(F)c3NC2=O)cn1 [Example 50]             1.99
11  Cc1ccn2nc(-c3ccccc3F)c(C(=O)N[C@H]3N=C(c4ccccc4)c4cccc(F)c4NC3=O)c2n1 [Example 23]             0.07
12  Cc1ccc2nc(-c3ccccc3F)c(C(=O)N[C@H]3N=C(c4ccccc4)c4cccc(F)c4NC3=O)n2n1 [Example 19]             0.20

====

Method description: Cell cytotoxicity (CC50)
Type: cell-based
Condition details: human; mean of at least two experiments
CC50 values, listed per item
Endpoint: CC50

> print(dat)
                          chemical.structure  observed.result
 1  Cc1ccc2nc(-c3ccncc3F)c(C(=O)N[C@H]3N=C(c4ccccc4)c4cccc(F)c4NC3=O)n2n1          > 25 µM
 2  Cc1cc(-c2nn3cccnc3c2C(=O)N[C@H]2N=C(c3ccccc3)c3cccc(F)c3NC2=O)ccn1          > 25 µM
 3  Cc1ccn2nc(-c3ccc(F)cc3F)c(C(=O)N[C@H]3N=C(c4ccccc4)c4ccccc4NC3=O)c2n1          > 25 µM
 4  Cc1ccc2nc(-c3cccnc3)c(C(=O)N[C@H]3N=C(c4ccccc4)c4cccc(F)c4NC3=O)n2n1          > 25 µM
 5  Cc1cnc(F)c(-c2nn3cccnc3c2C(=O)N[C@H]2N=C(c3ccccc3)c3cccc(F)c3NC2=O)c1          > 25 µM
 6  O=C(N[C@H]1N=C(c2ccccc2)c2ccccc2NC1=O)c1c(-c2ccccc2)nc2cccnn12          > 25 µM
 7  CNc1ccc(-c2nn3cccnc3c2C(=O)N[C@H]2N=C(c3ccccc3)c3ccccc3NC2=O)cc1          > 25 µM
 8  O=C(N[C@H]1N=C(c2ccccc2)c2cccc(F)c2NC1=O)c1c(-c2cccc(F)c2F)nn2cccnc12          > 14 µM
 9  O=C(N[C@H]1N=C(c2ccccc2)c2ccccc2NC1=O)c1c(-c2ccc(F)cc2F)nn2cccnc12          > 25 µM
10  Cc1ccn2nc(-c3ccccc3F)c(C(=O)N[C@H]3N=C(c4ccccc4)c4ccccc4NC3=O)c2n1          > 25 µM
11  CC(C)c1ccc(-c2nn3cccnc3c2C(=O)N[C@H]2N=C(c3ccccc3)c3cccc(F)c3NC2=O)cn1          > 25 µM
12  Cc1cc(-c2nc3ccc(C)nn3c2C(=O)N[C@H]2N=C(c3ccccc3)c3ccccc3NC2=O)ccn1          > 25 µM
13  CCc1ccc(-c2nc3ccc(OC)nn3c2C(=O)N[C@H]2N=C(c3ccccc3)c3cccc(F)c3NC2=O)cn1          > 25 µM
14  COc1ccc2nc(-c3ccccc3F)c(C(=O)N[C@H]3N=C(c4ccccc4)c4cccc(F)c4NC3=O)n2n1          > 25 µM
15  Cc1ccc2nc(-c3ccccc3)c(C(=O)N[C@H]3N=C(c4ccccc4)c4ccccc4NC3=O)n2n1          > 25 µM
16  Cc1cncc(-c2nc3ccc(C)nn3c2C(=O)N[C@H]2N=C(c3ccccc3)c3cccc(F)c3NC2=O)c1          > 25 µM
17  O=C(N[C@H]1N=C(c2ccccc2)c2cccc(F)c2NC1=O)c1c(-c2ccccc2F)nn2ccc(N3CCCC3)nc12          > 25 µM
18  Cc1ccc(F)c(-c2nn3cccnc3c2C(=O)N[C@H]2N=C(c3ccccc3)c3cccc(F)c3NC2=O)c1          8.77 µM
19  CCNc1ccc(-c2nn3cccnc3c2C(=O)N[C@H]2N=C(c3ccccc3)c3cccc(F)c3NC2=O)c(F)n1          > 25 µM
20  CNc1ccc(-c2nn3cccnc3c2C(=O)N[C@H]2N=C(c3ccccc3)c3ccccc3NC2=O)c(F)c1          > 25 µM
21  O=C(N[C@H]1N=C(c2ccccc2)c2cccc(F)c2NC1=O)c1c(-c2c(F)cccc2F)nn2cccnc12          > 25 µM
22  O=C(N[C@H]1N=C(c2ccccc2)c2ccccc2NC1=O)c1c(-c2ccccc2)nn2cccnc12          > 25 µM
23  CCNc1ccc2nc(-c3ccccc3F)c(C(=O)N[C@H]3N=C(c4ccccc4)c4cccc(F)c4NC3=O)n2n1          > 25 µM
24  COc1ccc2nc(-c3ccncc3F)c(C(=O)N[C@H]3N=C(c4ccccc4)c4cccc(F)c4NC3=O)n2n1          > 25 µM
25  COCCc1ccc(-c2nn3cccnc3c2C(=O)N[C@H]2N=C(c3ccccc3)c3cccc(F)c3NC2=O)cn1          > 25 µM
26  [2H]C([2H])([2H])Oc1ccc2nc(-c3ccccc3)c(C(=O)N[C@H]3N=C(c4ccccc4)c4cccc(F)c4NC3=O)n2n1          > 25 µM
27  CCNc1ccc(-c2nn3cccnc3c2C(=O)N[C@H]2N=C(c3ccccc3)c3ccccc3NC2=O)c(F)n1          > 25 µM
28  CCOc1ccc(-c2nn3cccnc3c2C(=O)N[C@H]2N=C(c3ccccc3)c3cccc(F)c3NC2=O)cn1          > 25 µM
29  Cc1cc(-c2nc3ccc(C)nn3c2C(=O)N[C@H]2N=C(c3ccccc3)c3cccc(F)c3NC2=O)ccn1          > 25 µM
